System: CD2F1 mice, L1210 leukemia ip, survival T/C
experiment summary: NCI In Vivo Anticancer Drug Screen. Data for tumor model L1210 Leukemia (intraperitoneal) in CD2F1 (CDF1) mice
protocol conditions: endpoint: mean survival time; dose: 100.0 mg/kg/injection; schedule: Q01DX009 (ip); vehicle: saline with Tween-80; higher = longer survival
Inconclusive results and toxic doses are left out.
Form field: T/C (one value per entry).

molecule	T/C
COc1cc(OC)c(NC(=O)Oc2c(Cl)cccc2Cl)cc1Cl	97 % of control
CN(C)CCOc1ccccc1Cc1ccccc1	119 % of control
CN(Cc1ccc(Cl)cc1)N=Nc1ccc(C#N)cc1	98 % of control
c1ccc(-c2nc3ccc4ccccc4c3nc2-c2ccccc2)cc1	94 % of control
CCN(CC)c1nc(Cl)nc(NC(C)C)n1	100 % of control
C=C(COC(C)(C)C)CN(C)C	104 % of control
CN1CN(C)C(=O)S(=O)(=O)C1	105 % of control
CCOC(=O)Cc1ccncc1CC	97 % of control
Fc1ccc(Nc2c3ccccc3nc3ccccc23)cc1	96 % of control
Cc1cc(C)cc(NC(=O)c2ccccc2N)c1	107 % of control
CCC(C)C(C(=O)OCCN(C)C)c1ccccc1 (centres undefined)	97 % of control
COc1ccc(C=NC2CC(C)CCC2C)c(OC)c1 (centres undefined)	86 % of control
Cc1cc(Cl)c2nc(-c3ccccc3)ccc2c1	103 % of control
O=C(O)CCn1ccccc1=O	94 % of control

====

Test system: CD2F1 mice, L1210 leukemia ip, survival T/C
experiment summary: NCI In Vivo Anticancer Drug Screen. Data for tumor model L1210 Leukemia (intraperitoneal) in CD2F1 (CDF1) mice
protocol conditions: endpoint: mean survival time; dose: 200.0 mg/kg/injection; schedule: Q01DX009 (ip); vehicle: saline with Tween-80; higher = longer survival
Toxic doses and inconclusive results are not listed.

compound	T/C
C(=C/C1CCCCC1)/C=C/C1CCCCC1	107 % of control
COC(=O)c1nc2ccccc2nc1C(=O)OC	103 % of control
ClC(Cl)=C(c1ccc(Cl)cc1)c1ccc(Cl)cc1	97 % of control
O=C(O)CC(NC(=O)OCc1ccccc1)C(=O)OCc1ccccc1 (configuration not stated)	96 % of control
C=CCNC(=O)OCC	98 % of control
CCOc1nc(OCC)nc(-c2cccn2-c2ccccc2)n1	87 % of control
COc1ccc(C=NC2CC(C)CCC2C)c(OC)c1 (configuration not stated)	89 % of control

====

Form field: T/C (one value per entry).
Tested on: CD2F1 mice, L1210 leukemia ip, survival T/C
experiment summary: NCI In Vivo Anticancer Drug Screen. Data for tumor model L1210 Leukemia (intraperitoneal) in CD2F1 (CDF1) mice
protocol conditions: endpoint: mean survival time; dose: 100.0 mg/kg/injection; schedule: Q01DX009 (ip); vehicle: saline with Tween-80; higher = longer survival
Inconclusive results and toxic doses are left out.

compound	T/C
O=CNc1cc2ccccc2c2ccc3ccccc3c12	94 % of control
CCC(/C=C/C(C)C1CCC2C3CC=C4CC(O)CCC4(C)C3CCC12C)C(C)C (stereo not drawn) (tested in a mixture with another compound)	94 % of control
Cc1nc2[nH]c(=O)[nH]c(=O)c2[nH]1	92 % of control
Cc1cccc(/C=N\OCCc2ccccc2)n1	94 % of control
O=C(/C=C/c1ccccc1)N1CC2CCC(CC2)C1	94 % of control
CCOC(=O)CCC1(C(=O)OC)C(=O)CCCCC/C=C/1C(=O)OC (stereo not drawn)	101 % of control
O=S1(=O)CC(Br)C(Br)C1 (stereo not drawn)	100 % of control
C1CNC2NCCNC2N1 (stereo not drawn)	101 % of control
O=C(O)C1(C(=O)O)CCC1.[NH2-].[NH2-].[Pt+2]	96 % of control
Nc1ccc(S(=O)(=O)F)c(Cl)c1	97 % of control
C=CCNC(=O)OCC	100 % of control
COc1cc(Cl)ccc1NC(=O)Nc1ccc(CCO)cc1	93 % of control
CC(C)(CO)CCCCCCC(C)(C)CO	106 % of control
